# credit: patent US10577363B2

# assay system: SMYD3 (Homo sapiens (Human), UniProt Q9H7B4)
# Sequence (Q9H7B4 whole entry): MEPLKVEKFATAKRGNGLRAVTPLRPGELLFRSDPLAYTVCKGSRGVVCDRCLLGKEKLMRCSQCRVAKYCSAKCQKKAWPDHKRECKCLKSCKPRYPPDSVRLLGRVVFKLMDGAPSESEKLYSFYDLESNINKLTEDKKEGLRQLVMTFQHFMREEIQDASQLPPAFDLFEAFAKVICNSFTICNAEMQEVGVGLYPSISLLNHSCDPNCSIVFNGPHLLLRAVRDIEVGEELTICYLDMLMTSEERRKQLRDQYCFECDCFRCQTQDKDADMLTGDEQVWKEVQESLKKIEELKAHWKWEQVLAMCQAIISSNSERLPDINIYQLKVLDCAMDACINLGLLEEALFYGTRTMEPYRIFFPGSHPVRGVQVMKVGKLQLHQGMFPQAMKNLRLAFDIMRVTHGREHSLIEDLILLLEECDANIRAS
# protocol notes: SMYD3 cell assay (Trimethyl-MEKK2 In-Cell Western in 293T/17 cells)
# Format: cell-based
# conditions: read-out: SMYD3 Cell IC50*
observation type: pIC50
// scale note: pIC50 = -log10(conc_M); give the bare number

O=C(N[C@H]1C[C@H]2CC[C@@H](C1)N2S(=O)(=O)N1CCNCC1)c1cc(C2CC2)on1 ... 7.33

API: value(readout= pIC50, system= SMYD3 (Homo sapiens (Human), UniProt Q9H7B4), query= CCCN1CCC(CS(=O)(=O)N2[C@@H]3CC[C@H]2C[C@@H](NC(=O)c2cc(C4CC4)on2)C3)CC1 )
7.57

API: value(readout= pIC50, system= SMYD3 (Homo sapiens (Human), UniProt Q9H7B4), query= C[C@H]1C[C@@H](NC(=O)c2cc(C3CC3)on2)CCN1S(=O)(=O)N1CCC(N(C)CCO)CC1 )
7.62

API: value(readout= pIC50, system= SMYD3 (Homo sapiens (Human), UniProt Q9H7B4), query= CN1CCC([C@@H](Cc2ccccc2)S(=O)(=O)N2[C@@H]3CC[C@H]2C[C@@H](NC(=O)c2cc(C4CC4)on2)C3)CC1 )
6.55
